target: CRF1R; assay: cell-based or functional assay; note: reference of the scale not given here
Ends that are not written are not given here.
PROPERTY: CRF1R Emax % (%)
Your answer is read as %, so omit the unit and give the number.

BINDER	PROPERTY	MEASUREMENT
ZGPPISIDLPAFLLRKMIEIEKQEKEKQQAANNRLLLDTI (C-terminal amide) [SEQ ID NO 222]	CRF1R Emax %	95

# query: CRF1R Emax % of entry ZGPPISIDLPFQLLRKAIEIEKQEKEKQQATTNARLLDRV (C-terminal amide) [SEQ ID NO 363] 20

// returns reported CRF1R Emax % for input ZGPPISIDLPYHLLRKVIEIEKQEKEKQQAANNALLLATI (C-terminal amide) [SEQ ID NO 313] 87.1

Which CRF1R Emax % is reported for this binder? DNPSLSIDLPLFLLRTLLELARTQSQRERAEQNARIFARV-NH2 [SEQ ID NO 329] 98.4

GET /values?readout=CRF1R Emax %&item= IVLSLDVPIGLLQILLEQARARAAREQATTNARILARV-NH2 [SEQ ID NO 354] 13.4

Need CRF1R Emax % of ZGPPISIDLPYWLLRKMIEIEKQEKEKQQAANNALLLDTI (C-terminal amide) [SEQ ID NO 310] , thanks. 45.3

Sample DNPSLSIDVPLYLLRTLLELEKTQSQRERAEQNARIFARV-NH2 [SEQ ID NO 387] — what was its CRF1R Emax %? 50.1

// CRF1R Emax % lookup, key: ZGPPISIDLPFQLLRILIEIEKQEKEKQQAANNRLLLDTI (not fully specified; C-terminal amide) [SEQ ID NO 255] 84

Reported CRF1R Emax %, binder ZGPPISIDLPLQLLEKMIEIEKQEKEKQQATTNARLLDRV (C-terminal amide) [SEQ ID NO 247] : ____ 34

For the binder ZGPPISIDLPIFLLRKMIEIEKQEKEKQQAANNARLLARI (not fully specified; C-terminal amide) [SEQ ID NO 282] , what CRF1R Emax % is on record? 21.8

CRF1R Emax % for DNPSLSIDVPFFLLRTLLELEKTQSQRERAEQNARIFARV-NH2 [SEQ ID NO 386] ? 78.2

Can you share its CRF1R Emax %? I mean this binder: ZGPPISIDLPLYLLRKMIEIEKQEKEKQQATTNARLLDRV (C-terminal amide) [SEQ ID NO 243] 96

// query CRF1R Emax % value for entry ZGPPISIDVPYQLLRKVIEIEKQEKEKQQAANNARLLDTI (C-terminal amide) [SEQ ID NO 374] 11

Suppose we examine the binder ZGPPISIDVPFQLLRKVIEIEKQEKEKQQAANNARLLARI (C-terminal amide) [SEQ ID NO 383] ; what CRF1R Emax % value has been reported? 55

CRF1R Emax % lookup needed for ZGPPISIDLPAALLRKMIEIEKQEKEKQQAANNRLLLDTI (C-terminal amide) [SEQ ID NO 303] , thanks. 100

All values here come from patent US20030148958A1.
